Form field: concentration at 1 h (one value per entry).
# TEST: Mouse Fast PK/BBB (plasma and brain concentration)
# Assay type: in vivo
# RUN_CONDITIONS: male, C57bl/6j, plasma, oral, 1 hr, N=3 (dose given as 30 mg/kg and 20 mg/kg), read-out: PLASMA Mean Conc. ± Std. Dev
# Description: Male Sprague Dawley rats were ordered from Charles River (225-250 gm upon arrival). They were fed standard chow diet (Purina 5001) and housed 2 per cage. Male C57bl/6j mice were ordered from Charles River at 22-25 g and housed 3 per cage. They were fed standard chow (Purina 5001). All animals were housed in a temperature-controlled room with 12-hour light/dark cycle. […] Male C57bl/6j mice were dosed with test compounds at 30 mg/kg. […] Wet brain weight was recorded before freezing. […]
PARAMETER_MEASURED: concentration at 1 h

[[record]]
molecule = "O=c1cc(Nc2ccc(C(F)(F)F)cc2)c2cc(C(c3ccc(Cl)cc3)c3ccc(Cl)cc3)ccc2[nH]1 [Compound #59]"
experimental_value = "2.32 µg/mL"

[[record]]
molecule = "O=c1cc(NC2CCN(S(=O)(=O)C(F)(F)F)CC2)c2cc(C(c3ccc(Cl)cc3)c3nccs3)ccc2[nH]1 (stereo not drawn) [Compound #41]"
experimental_value = "0.714 µg/mL"

[[record]]
molecule = "O=c1cc(NC2CCN(S(=O)(=O)C(F)(F)F)CC2)c2cc(C(c3ccc(Cl)cc3)c3ccc(Cl)cc3)ccc2[nH]1 [Compound #44]"
experimental_value = "1.05 µg/mL"


Where do these numbers come from? They come from patent US9266835B2.
